target or system: human cytochrome CYP3A4 (Homo sapiens, UniProt P08684)
measurement notes: CYP3A4 inhibition assay of dillapiol derivatives (earlier benzyloxyresorufin assay)
Type: biochemical
recorded conditions: Table 1; CYP3A4 inhibition; read-out: IC50
Protocol: A suite of dillapiol derivatives were synthesized and assayed for their capacity to inhibit human cytochrome CYP3A4. For each molecule, experimental IC50 values for CYP3A4 inhibition were determined. These IC50 values together with the log of the octanol-water partition coefficient (logP) and molecular refractivity (MR) are shown in Table 1, and were used as parameters to model a quantitative structure-activity relationship (QSAR). […]
measured parameter: log10(IC50) (log10 of the value in µM)
Note: values are log10 of IC50 expressed in µM.

Consider the worked cases shown below.
molecule: C=CCc1cc2c(c(S(=O)(=O)c3ccc(OC)cc3)c1O)OCO2 [Compound 23]
log10(IC50): 2.36

molecule: COc1c(CCCOC(=O)c2ccccc2)cc2c(c1OC)OCO2 [Compound 12]
log10(IC50): 1.15

molecule: C=CCc1cc2c(c(S(C)(=O)=O)c1OC)OCO2 [Compound 15]
log10(IC50): 3.04

molecule: C=CCc1cc2c(c(SCc3ccccc3)c1OC)OCO2 [Compound 25]
log10(IC50): 1.64

molecule: C=CCc1cc2c(c(COCC(=O)OCC)c1OC)OCO2 [Compound 13]
log10(IC50): 1.99

Respectfully, I request log10(IC50) for each entry included below.
1. C=CCc1cc2c(c(C(O)CCCCCCCC)c1OC)OCO2 (single isomer, unassigned) [Compound 7]
2. C=CCc1cc2c(c(CO)c1OC)OCO2 [Compound 4]

[2.28, 2.95]

---

So I've got a bunch of compounds here, and I need their pIC50 values.
target or system: human cytochrome CYP3A4 (Homo sapiens)
measurement notes: CYP3A4 inhibition assay of dillapiol derivatives (earlier benzyloxyresorufin assay)
Assay type: biochemical
recorded conditions: Table 1; CYP3A4 inhibition; read-out: IC50
One number for each entry, as −log10 of the molar value.

structure string: C=CCc1cc2c(c(Sc3ccc(OC)cc3)c1OC)OCO2
target or system: human cytochrome CYP3A4 (Homo sapiens)
measured parameter: pIC50
number: 3.18

structure string: C=CCc1cc2c(c(COC)c1OC)OCO2
target or system: human cytochrome CYP3A4 (Homo sapiens)
measured parameter: pIC50
number: 3.49

structure string: C=CCc1cc2c(c(SC)c1O)OCO2
target or system: human cytochrome CYP3A4 (Homo sapiens)
measured parameter: pIC50
number: 3.38

Dear colleague, could you please provide pIC50 for the compounds listed below?
1. C=CCc1cc2c(c(Sc3ccccc3)c1OC)OCO2
2. C=CCc1cc2c(c(C=O)c1OC)OCO2
3. C=CCc1cc2c(c(Br)c1O)OCO2

1. 3.32
2. 3.21
3. 3.22

---

target or system: CYP3A4 (BDGentest) (Homo sapiens)
Construct: purchased BDGentest
measurement notes: New CYP3A4 bioassay with dibenzylfluorescein (DBF) substrate (Foster et al. 2011)
Type: biochemical
recorded conditions: DBF substrate 1 μM, human microsomes; read-out: IC50 (converted)
Binary call on IC50 with cut-off 3000 nM: strictly below means rule met, and equality or higher means rule not met.

Consider the compound COc1cc2c(cc1CCCOC(=O)C(c1ccccc1)c1ccccc1)OCO2 . Is its IC50 strictly less than 3000 nM?
rule met

COc1c(CCCC(c2ccccc2)c2ccccc2)cc2c(c1OC)OCO2 , same question.
rule not met

Follow-up item: C=CCc1cc2c(cc1O)OCO2 [drawing 54]
rule not met

Same again, this time with COc1c(C/C=C/Cc2cc3c(c(OC)c2OC)OCO3)cc2c(c1OC)OCO2 [drawing 66]
rule met

Also COc1c(C/C=C/Cc2cc3c(c(OC)c2OC)OCO3)cc2c(c1OC)OCO2 [Compound 56] , if possible.
rule met

Again, but for COc1cc2c(cc1CCCOC(=O)c1ccccc1)OCO2 [drawing 73]
rule met

# iterate: COc1cc2c(cc1CCCOC(=O)/C=C/c1ccccc1)OCO2
rule not met

---

target or system: CYP3A4 (BDGentest) (Homo sapiens, UniProt P08684)
Construct: purchased BDGentest
Sequence (P08684 whole entry): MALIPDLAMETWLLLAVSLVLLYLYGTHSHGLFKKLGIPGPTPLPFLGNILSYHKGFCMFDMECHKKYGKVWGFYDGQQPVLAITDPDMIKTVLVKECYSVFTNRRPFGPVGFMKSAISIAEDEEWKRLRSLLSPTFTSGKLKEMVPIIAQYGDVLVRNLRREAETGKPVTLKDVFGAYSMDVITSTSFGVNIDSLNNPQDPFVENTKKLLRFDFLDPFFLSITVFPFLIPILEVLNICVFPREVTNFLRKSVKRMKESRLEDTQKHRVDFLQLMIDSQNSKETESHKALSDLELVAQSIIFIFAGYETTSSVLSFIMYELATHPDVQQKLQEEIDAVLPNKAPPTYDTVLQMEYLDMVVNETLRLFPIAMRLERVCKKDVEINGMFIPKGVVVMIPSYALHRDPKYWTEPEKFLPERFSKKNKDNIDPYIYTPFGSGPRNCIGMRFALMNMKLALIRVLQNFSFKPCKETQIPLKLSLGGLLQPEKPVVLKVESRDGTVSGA
measurement notes: New CYP3A4 bioassay with dibenzylfluorescein (DBF) substrate (Foster et al. 2011)
Format: biochemical

structure string: COc1cc2c(cc1CCCOC(=O)C(c1ccccc1)c1ccccc1)OCO2
CYP3A4 inhibition (in words): strong CYP3A4 inhibitors

structure string: COc1cc2c(cc1CCCOC(=O)c1ccccc1)OCO2
CYP3A4 inhibition (in words): strong CYP3A4 inhibitors

structure string: COc1ccc(OC)c(COc2cc3c(cc2CCCOC(=O)c2ccccc2)OCO3)c1
CYP3A4 inhibition (in words): strong CYP3A4 inhibitors

---

For each entry below, report its Rel. Activity Dillapiol = 1.0 value.
target or system: human cytochrome CYP3A4 (Homo sapiens)
measurement notes: CYP3A4 inhibition assay of dillapiol derivatives (earlier benzyloxyresorufin assay)
Format: biochemical
recorded conditions: Table 1; CYP3A4 inhibition relative to dillapiol
Numbers only.

compound: C=CCc1cc2c(c(S(C)(=O)=O)c1OC)OCO2
Rel. Activity Dillapiol = 1.0: 0.37

Provide each entry's Rel. Activity Dillapiol = 1.0 from the list below.
1. C=CCc1cc2c(c(CC=C)c1O)OCO2
2. C=CCc1cc2c(c(C(O)CCCCCCCC)c1OC)OCO2 (centres unmarked) [Compound 2]
3. C=CCc1cc2c(c([S+]([O-])c3ccccc3)c1OC)OCO2 (centres unmarked)
4. C=CCc1cc2c(c(OCCCCCCCC)c1OC)OCO2
5. C=CCc1cc2c(c(CO)c1OC)OCO2
6. C=CCc1cc2c(c(SC)c1O)OCO2
7. C=CCc1cc2c(c(C=O)c1OC)OCO2
8. C=CCc1cc2c(c(/C=C/C(=O)OC)c1OC)OCO2

1: 1.9; 2: 15; 3: 2.7; 4: 1.3; 5: 0.45; 6: 1.0; 7: 0.66; 8: 1.7

For each of the compounds below, note its Rel. Activity Dillapiol = 1.0.
1. C=CCc1cc2c(c(COCC(=O)OCC)c1OC)OCO2
2. C=CCc1cc2c(c(SCc3ccccc3)c1O)OCO2

4.2
1.6

---

target or system: human cytochrome CYP3A4 (Homo sapiens, UniProt P08684)
measurement notes: CYP3A4 inhibition assay of dillapiol derivatives (earlier benzyloxyresorufin assay)
Type: biochemical
measured parameter: IC50 (µM)
Answers are plain numbers, in µM.

The examples below pair each entry with its known result.
structure string: C=CCc1cc2c(c(CC=C)c1OC)OCO2
IC50, µM: 810

structure string: C=CCc1cc2c(c(O)c1OC)OCO2
IC50, µM: 1600

structure string: C=CCc1cc2c(c(OC)c1OC)OCO2
IC50, µM: 410

Okay, now this compound:
Tell me the measured IC50 of C=CCc1cc2c(c(SC)c1OC)OCO2 , please.
320

---

Could you please report measured % Activity relative to dillapiol = 1 for the items listed next?
target or system: CYP3A4 (BDGentest) (Homo sapiens, UniProt P08684)
Construct: purchased BDGentest
measurement notes: New CYP3A4 bioassay with dibenzylfluorescein (DBF) substrate (Foster et al. 2011)
Type: biochemical
recorded conditions: new CYP3A4 bioassay; inhibition relative to dillapiol
Answers are plain numbers.

structure string: CCCCCC(=O)OCCCc1cc2c(c(OC)c1OC)OCO2
% Activity relative to dillapiol = 1: 2.82
--
structure string: COc1c(CCCC(O)(c2ccccc2)c2ccccc2)cc2c(c1OC)OCO2
% Activity relative to dillapiol = 1: 8.7
--
structure string: C=CCc1cc2c(c(OC)c1OC)OCO2
% Activity relative to dillapiol = 1: 1

Could you tell me % Activity relative to dillapiol = 1 for each of these molecules? They are listed below.
1. COc1cc2c(cc1CCCOC(=O)/C=C/c1ccccc1)OCO2
2. O=C(/C=C/c1ccccc1)OCCCc1cc2c(cc1OCc1ccccc1)OCO2
3. COc1c(CCCOC(=O)c2ccccc2)cc2c(c1OC)OCO2
4. COc1c(CCCOC(=O)c2ccccc2Cl)cc2c(c1OC)OCO2

1: 1.94; 2: 1.125; 3: 4.4; 4: 1.75

Give % Activity relative to dillapiol = 1 for each listed item.
1. COc1c(CCCOC(=O)c2ccc3c(c2)OCO3)cc2c(c1OC)OCO2
2. COc1c(CCCOC(=O)Cc2ccccc2)cc2c(c1OC)OCO2
3. COc1c(CCCO)cc2c(c1OC)OCO2
4. OCCCc1cc2c(cc1OCc1ccccc1)OCO2

3.49
4.83
0.57
3

---

target or system: human cytochrome CYP3A4 (Homo sapiens)
measurement notes: CYP3A4 inhibition assay of dillapiol derivatives (earlier benzyloxyresorufin assay)
Assay type: biochemical
recorded conditions: Table 1; CYP3A4 inhibition relative to dillapiol
Output: class label from Rel. Activity Dillapiol = 1.0. Mapping: band 1 = under 1, band 2 = from 1 up to 2, band 3 = 2 and over

Below, 7 molecules whose answers are already recorded.
molecule: C=CCc1cc2c(c(SC)c1OC)OCO2
target or system: human cytochrome CYP3A4 (Homo sapiens)
cat: band 2

molecule: C=CCc1cc2c(c(COC)c1OC)OCO2
target or system: human cytochrome CYP3A4 (Homo sapiens)
cat: band 2

molecule: C=CCc1cc2c(c(Sc3ccc(OC)cc3)c1OC)OCO2
target or system: human cytochrome CYP3A4 (Homo sapiens)
cat: band 1

molecule: C=CCc1cc2c(c([S+]([O-])Cc3ccccc3)c1OC)OCO2 (stereo not shown)
target or system: human cytochrome CYP3A4 (Homo sapiens)
cat: band 3

molecule: C=CCc1cc2c(c(Sc3ccccc3)c1OC)OCO2
target or system: human cytochrome CYP3A4 (Homo sapiens)
cat: band 1

molecule: C=CCc1cc2c(c(Br)c1O)OCO2
target or system: human cytochrome CYP3A4 (Homo sapiens)
cat: band 1

molecule: C=CCc1cc2c(c(S(=O)(=O)c3ccc(OC)cc3)c1O)OCO2
target or system: human cytochrome CYP3A4 (Homo sapiens)
cat: band 2

Using the reported Rel. Activity Dillapiol = 1.0, which band applies to COc1c(CCCOC(=O)c2ccccc2)cc2c(c1OC)OCO2 ?
band 3
